- Test system: Leishmania donovani
- Experiment Summary: Antileishmanial activity against Leishmania donovani promastigotes assessed as reduction in parasite viability in presence of 100 uM iron chelator desferrioxamine measured after 24 hrs by microplate alamar blue assay
- Assay type: functional, organism-based
pIC50 by entry:
Lab note: report pIC50 as minus log10 of the concentration in molar units, number only.

>>> measured_value("CCCCC1(CCCC)C[C@H](CNCCCn2ccnc2)[C@](C)(OC)OO1 (racemic)")
5.19

The record that follows has no pIC50 shown yet.
Using the record for CCCCC1(CCCC)CO[C@@](C)(OC)[C@@H](CNCCCn2ccnc2)C1 (racemic) , report its pIC50.
5.34

* * *

- Test system: Leishmania donovani
- Experiment Summary: Antileishmanial activity against sitamaquine-resistant wild type promastigote stage of Leishmania donovani MHOM/ET/67/HU3 infected in mouse macrophages assessed as reduction in parasite viability measured after 48 hrs by Giemsa staining-based assay
- Format: functional, organism-based
- Recorded Conditions: MHOM/ET/67/HU3, Macrophage
Property: pIC50
Lab note: report pIC50 as minus log10 of the concentration in molar units, number only.

// known answers, use as guide
>>> measured_value("C=CCO[C@@]1(C(F)(F)F)O[C@@H]2C[C@@]3(C)C[C@H]4[C@H](C)CC[C@@H]([C@H]1C)[C@@]24OO3")
5.80
>>> measured_value("CCCCCCCCCCCCCCCCOP(=O)([O-])OCC[N+](C)(C)C [MILTEFOSINE]")
5.72

The record that follows has no pIC50 shown yet.
Using the record for `COc1ccc(N[C@@]2(C(F)(F)F)O[C@@H]3C[C@@]4(C)C[C@H]5[C@H](C)CC[C@@H]([C@H]2C)[C@@]35OO4)cc1` , report its pIC50.
6.42
